Test: Selectivity index, ratio of CC50 for African green monkey Vero cells to MIC for Mycobacterium tuberculosis H37Rv ATCC 27294
Assay type: toxicity
Settings: read-out: Selectivity Index
measured-metric: selectivity ratio

May I ask what selectivity ratio has been recorded for CC1=C(C[Se]C(=O)c2ccccc2C)C(=O)c2ccccc2C1=O ?
0.9

Please report the recorded selectivity ratio for NNC(=O)c1ccncc1 .
> 22.7

Reported selectivity ratio for CC1=C(C[Se]C(=O)c2ccc(F)cc2)C(=O)c2ccccc2C1=O : what is it?
> 6.2

// lookup selectivity ratio for CC1=C(C[Se]C(=O)c2ccccc2)C(=O)c2ccccc2C1=O
> 23.8

====

Assay: Cytotoxicity against African green monkey Vero cells assessed as reduction in cell viability incubated for 24 hrs by MTT assay
Format: cell-based
Settings: chlorocebus sabaeus
measured-metric: CC50 at 24 h

So what does the record say about CC50 at 24 h for CC1=C(C[Se]C(=O)c2ccccc2)C(=O)c2ccccc2C1=O ?
> 50 µM

Requested read-out: CC50 at 24 h. Entry: CC1=C(C[Se]C(=O)c2ccc(F)cc2)C(=O)c2ccccc2C1=O
> 50 µM

// returns reported CC50 at 24 h for input NNC(=O)c1ccncc1
> 50 µM

Any idea what CC50 at 24 h was measured for CC1=C(C[Se]C(=O)c2ccccc2C)C(=O)c2ccccc2C1=O ?
7.7 µM

====

Test: Selectivity index, ratio of CC50 for African green monkey Vero cells to MIC for Mycobacterium tuberculosis CDCT-16
Type: toxicity
Details: read-out: Selectivity Index
measured-metric: selectivity ratio

Given the entry CC1=C(C[Se]C(=O)c2ccccc2)C(=O)c2ccccc2C1=O , report its measured selectivity ratio.
> 62.5

Query: selectivity ratio; subject: CC1=C(C[Se]C(=O)c2ccc(F)cc2)C(=O)c2ccccc2C1=O
> 62.5

// returns reported selectivity ratio for input CC1=C(C[Se]C(=O)c2ccccc2C)C(=O)c2ccccc2C1=O
2.5

====

Give selectivity ratio for every item shown.
Experiment: Selectivity index, ratio of CC50 for African green monkey Vero cells to MIC for Mycobacterium tuberculosis CDCT-27
Assay type: toxicity
Conditions: read-out: Selectivity Index

# input compound: CC1=C(C[Se]C(=O)c2ccccc2)C(=O)c2ccccc2C1=O ; wanted: its selectivity ratio
> 62.5

Field request: selectivity ratio | item: CC1=C(C[Se]C(=O)c2ccccc2C)C(=O)c2ccccc2C1=O
2.5

selectivity ratio for CC1=C(C[Se]C(=O)c2ccc(F)cc2)C(=O)c2ccccc2C1=O ?
> 16.1
